Target entity: T1, full-length recombinant human PAD4 (human, UniProt Q9UM07 1-663)
T1 construct: Full-length recombinant; also called peptidylarginine deiminase 4
T1 sequence (Q9UM07 whole entry): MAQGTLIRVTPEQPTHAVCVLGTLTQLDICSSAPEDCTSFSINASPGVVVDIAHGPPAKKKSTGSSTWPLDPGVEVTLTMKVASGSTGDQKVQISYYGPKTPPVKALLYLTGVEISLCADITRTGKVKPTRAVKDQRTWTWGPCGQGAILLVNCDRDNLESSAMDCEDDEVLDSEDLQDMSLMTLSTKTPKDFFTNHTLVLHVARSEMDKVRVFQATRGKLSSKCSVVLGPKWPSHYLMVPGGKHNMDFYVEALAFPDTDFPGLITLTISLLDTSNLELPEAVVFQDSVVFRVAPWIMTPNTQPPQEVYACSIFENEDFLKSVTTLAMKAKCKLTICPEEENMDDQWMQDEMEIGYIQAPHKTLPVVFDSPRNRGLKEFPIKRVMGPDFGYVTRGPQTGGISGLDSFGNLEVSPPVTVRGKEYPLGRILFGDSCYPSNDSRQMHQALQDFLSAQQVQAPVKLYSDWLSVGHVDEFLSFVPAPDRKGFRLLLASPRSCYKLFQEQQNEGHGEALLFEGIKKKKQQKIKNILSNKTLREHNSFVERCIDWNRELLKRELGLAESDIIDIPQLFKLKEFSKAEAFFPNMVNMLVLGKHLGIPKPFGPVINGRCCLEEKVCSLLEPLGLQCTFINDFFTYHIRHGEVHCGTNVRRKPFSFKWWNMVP
Test method notes: ELISA, immobilized human PAD4
Could you please report measured O.D. 490/630 at 0.03125 µg/mL for the items listed next?
Answer with a bare number; do not write a unit.

Enquiry: Dear colleague, I am looking for the recorded O.D. 490/630 at 0.03125 µg/mL of the following binder: humanized anti-PAD4 antibody derived from G8, VH H4.32 / VL L4.29 (antibody, IgG1, V domains shown, IgG1 kappa; also called G8 H4.32/L4.29) VH: EVQLLESGGGLVQPGGSLRLSCAASGFTFSTYAMGWVRQAPGKGLEFVAAIRNDGSWTGYGAAVKGRVTISRDNSKNTVYLQMNSLRAEDTAVYYCAKYTGSSGGSIGAWGQGTLVTVSS VL: SYELTQPPSVSVSPGQTARITCSGGNRNYYYGWYQQKPGQAPVTVIYANDKRPSGIPERFSGSNSGSTTTLTISGVQAEDEADYYCGTADTGKYVFGGGTKLTVLG
Return: 1.88

Enquiry: Dear colleague, I am looking for the recorded O.D. 490/630 at 0.03125 µg/mL of the following binder: humanized anti-PAD4 antibody derived from H7, VH H4.32 / VL L4.00 (antibody, IgG1, V domains shown, IgG1 kappa; also called H7 H4.32/L4.00) VH: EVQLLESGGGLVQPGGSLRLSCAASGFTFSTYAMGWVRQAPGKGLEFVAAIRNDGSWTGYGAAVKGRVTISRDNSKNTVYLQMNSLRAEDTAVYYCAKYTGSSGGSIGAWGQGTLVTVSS VL: SYELTQPPSVSVSPGQTARITCSGGSGRYYYGWYQQKPGQAPVLVIYSSTHRPSGIPERFSGSSSGTTVTLTISGVQAEDEADYYCGTADSSSYVFGGGTKLTVLG
Return: 1.17
